Reported values of inhibition for individual entries
- MEASUREMENT_PROTOCOL: growth inhibition, single agents and combos, ICB984, cell-based, cisplatin or BGB combos, synergistic combos for chromothripsis tumors (AID 1671451);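 further: cells exposed for 96 hours before readout; 0% = vehicle DMSO and 100% = killing by high DMSO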
- CONDITION_NOTES: ICB984 medulloblastoma cells, drug combinations, BGB IC40 combo, at 0.05 µM, stronger effect = higher value

>  <COMPOUND>
O=C(O)CO.[NH2-].[NH2-].[Pt+2]

>  <inhibition>
-27.5%

$$$$
>  <COMPOUND>
C[C@]12CCCN1CC1=NNC(=O)c3cc(F)cc4[nH]c2c1c34

>  <inhibition>
-22.5%

$$$$
>  <COMPOUND>
CC(=O)[C@]1(N)Cc2c(O)c3c(c(O)c2[C@@H](O[C@H]2C[C@H](O)[C@H](O)CO2)C1)C(=O)c1ccccc1C3=O

>  <inhibition>
86.2%

$$$$
>  <COMPOUND>
O=C(O)[C@H](Cc1c[nH]c2ccccc12)N1C(=O)c2ccccc2C1=O

>  <inhibition>
4.66%

$$$$
>  <COMPOUND>
COc1ccc(C(=O)C2CCN(CC(=O)N(Cc3nc4c(c(=O)[nH]3)COCC4)CC3CC3)CC2)cc1

>  <inhibition>
-4.73%

$$$$
>  <COMPOUND>
Cc1cnc(CNC(=O)c2c(=O)c3ccc(N4CCCN(C)CC4)nc3n3c2sc2ccccc23)cn1

>  <inhibition>
102%

$$$$
>  <COMPOUND>
Nc1nc2n[nH]nc2c(=O)[nH]1

>  <inhibition>
29.3%

$$$$
>  <COMPOUND>
c1cc(Nc2cc(C3CC3)[nH]n2)nc(Nc2ccc3nc[nH]c3c2)n1

>  <inhibition>
101%

$$$$
>  <COMPOUND>
CN(C)Cc1c(C(=O)NCCOc2ccc(C(=O)NO)cc2)oc2ccccc12

>  <inhibition>
93.6%

$$$$
>  <COMPOUND>
O=c1cc(N2CCOCC2)oc2c1ccc1ccccc12

>  <inhibition>
-4.91%

$$$$
>  <COMPOUND>
O=C(COc1cccc2c(=O)[nH]ccc12)c1ccccc1

>  <inhibition>
-10.1%

$$$$
>  <COMPOUND>
NC1CCC(N[C@@H]2C[C@H]2c2ccccc2)CC1 (stereo not given in full)

>  <inhibition>
-44.5%

$$$$
>  <COMPOUND>
COc1ccc(C(=O)CC2(O)C(=O)Nc3c(Cl)ccc(Cl)c32)cc1 (stereo not given)

>  <inhibition>
11.3%

$$$$
>  <COMPOUND>
Cc1cn([C@@H]2O[C@H](CO)[C@@H](O)[C@@H]2F)c(=O)[nH]c1=O

>  <inhibition>
-28.4%

$$$$
>  <COMPOUND>
O=c1[nH]cnc2ccccc12

>  <inhibition>
-19.2%

$$$$
>  <COMPOUND>
CCCCc1nc2cc(/C=C/C(=O)NO)ccc2n1CCN(CC)CC

>  <inhibition>
90.2%

$$$$
>  <COMPOUND>
C=C1[C@H](CO)[C@@H](O)C[C@@H]1n1cnc2c(=O)[nH]c(N)nc21

>  <inhibition>
-29.5%

$$$$
>  <COMPOUND>
CC(=O)Nc1ccc(C(=O)Nc2ccccc2N)cc1

>  <inhibition>
23.2%

$$$$
>  <COMPOUND>
CC(C)OC(=O)[C@H](C)N[P@](=O)(OC[C@H]1O[C@@H](n2ccc(=O)[nH]c2=O)[C@](C)(F)[C@@H]1O)Oc1ccccc1

>  <inhibition>
-19.6%

$$$$
>  <COMPOUND>
NCCOc1cc(C(=O)Nc2cc(OCCN)c3ccccc3n2)nc(C(=O)Nc2cc(OCCN)c3ccccc3n2)c1

>  <inhibition>
41.5%

$$$$
